Biological target: T1, O15
T1 chain: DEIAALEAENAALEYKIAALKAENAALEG
Test: two-hybrid library CCNG1;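 note: natural log of median RNA to DNA barcode read ratio; higher means stronger binding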
Measured Metric: interaction score

DENAALEAEIAALEYENAALEAKIAALKG [O14] | -1.64

1. DKNAALKAKIAALKYKNAALKAEIAALEG [O13]
2. DKNAALKAENAALEYKIAALKAKIAALKG [O10]
Exam item: Lab note: check whether 1 or 2 has the lower measured interaction score. Use the label to indicate which entry you chose.
Marked response: 2
